Could you please report measured pKd for the items listed next?
target: ATF3 (Homo sapiens, UniProt P18847); construct: made in house; test: Direct-binding FRET assay; conditions: 37°C; N-terminal rhodamine design; mean or single; read-out: Kd
Sequence (P18847 86-149 limits assumed): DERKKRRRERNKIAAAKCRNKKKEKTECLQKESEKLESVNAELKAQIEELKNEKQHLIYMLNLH
pKd: −log10 of the molar value. Where no end group is shown, it is not given here.

// sample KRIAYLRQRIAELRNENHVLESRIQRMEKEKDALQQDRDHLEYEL [ATF5-d1] , its pKd was < 6.00

Looking up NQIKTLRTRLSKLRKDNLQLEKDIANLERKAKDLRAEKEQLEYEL [ATF4-d1] , I see its pKd listed as < 6.00

For this sequence ( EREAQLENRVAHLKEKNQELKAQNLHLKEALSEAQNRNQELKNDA [XBP1-d1] ), measured pKd is < 6.00

----------
Molecular target: FOSL1 (Homo sapiens)
Construct: made in house
Sequence (P15407 105-168 limits assumed): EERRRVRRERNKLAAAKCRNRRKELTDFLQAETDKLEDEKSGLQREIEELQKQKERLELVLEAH
Assay: Direct-binding FRET assay
Conditions: 4°C; N-terminal rhodamine design; mean or single
pKd: −log10 of the molar value. Where no end group is shown, it is not given here.
Value Type: pKd

GET /value?item= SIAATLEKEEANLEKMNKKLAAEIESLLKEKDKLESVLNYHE [JUN-d1] &field=pKd returns < 6.00

----------
Assignment: determine reported pKd for the given sequences.
Target: NFE2L2 (Homo sapiens, UniProt Q16236)
Construct: made in house
Sequence (Q16236 497-560 limits assumed): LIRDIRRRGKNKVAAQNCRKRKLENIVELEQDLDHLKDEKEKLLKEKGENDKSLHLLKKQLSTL
Assay: Direct-binding FRET assay
Conditions: 23°C; C-terminal rhodamine design; mean or single; read-out: Kd
Procedure: The direct binding assay was performed manually in 384-well plates and is similar to a previously described assay. Wells were filled with 20 μL of 1 mM TCEP-HCl. […] Briefly, the Kd of the designed peptide homodimer was experimentally determined and used with previously determined target homodimer Kd values to determine the heterodimer Kd. […] A minimum 15% change in the donor fluorescence upon titrating the acceptor peptide from 0 to 1000 nM was required for a fit to be attempted. […]
pKd: −log10 of the molar value. Where no end group is shown, it is not given here.

The value of pKd measured for the sequence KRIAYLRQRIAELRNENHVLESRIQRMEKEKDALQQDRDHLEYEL [ATF5-d1] turned out to be < 6.00

Recorded pKd (sequence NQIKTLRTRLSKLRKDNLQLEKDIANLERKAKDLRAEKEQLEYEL [ATF4-d1] ): < 5.30

response.value for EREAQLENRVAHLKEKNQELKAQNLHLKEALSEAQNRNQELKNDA [XBP1-d1] (field: pKd) = < 6.00

----------
Biological target: FOSL1 (Homo sapiens, UniProt P15407)
Construct: made in house
Sequence (P15407 105-168 limits assumed): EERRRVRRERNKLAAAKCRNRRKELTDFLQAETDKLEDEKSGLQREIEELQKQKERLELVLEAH
Assay: Direct-binding FRET assay
Settings: 23°C; C-terminal fluorescein design as donor, TAMRA target titrated; read-out: Kd
pKd: −log10 of the molar value. Where no end group is shown, it is not given here.
Value Type: pKd

pKd measured on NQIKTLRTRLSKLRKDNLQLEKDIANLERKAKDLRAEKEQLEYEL [ATF4-d1] = < 6.00
